# System: P388 leukemia ip, CD2F1 mice, survival T/C
# Measurement Description: NCI In Vivo Anticancer Drug Screen. Data for tumor model P388 Leukemia (intraperitoneal) in CD2F1 (CDF1) mice
# Study Conditions: endpoint: median survival time; dose: 100.0 mg/kg/injection; schedule: Q01DX009 (ip); vehicle: other; higher = longer survival
Toxic doses and inconclusive results are not listed.
Measurement Kind: T/C

Exam item: Consider the molecule "COc1ccc2nc3cc(Cl)ccc3c(Nc3cccc(NC(C)=O)c3)c2n1" and give its measured T/C.
Marked response: 99 % of control

Exam item: Data request, read-out T/C, for "NS(=O)(=O)c1cc2c(cc1Cl)NC(CCC(=O)O)=NS2(=O)=O"
Marked response: 90 % of control

Exam item: What value of T/C has been reported for the following molecule? "O=[N+]([O-])c1cc2c(cc1C1OCCO1)OCO2"
Marked response: 100 % of control

Exam item: Given C=CCCOC1CCCCO1 (centres undefined) , state its recorded T/C.
Marked response: 104 % of control

Exam item: # input molecule: "CC1(C)CCSC(/C=C/c2ccccc2)=N1" ; wanted: its T/C
Marked response: 109 % of control

Exam item: // query T/C value for entry O=C(c1ccc(-c2ccccc2)cc1)C1C(c2ccccc2)N1C1CCCCC1 (centres undefined)
Marked response: 91 % of control

Exam item: Returns the measured T/C for the input molecule. Input: "Cc1ccc([N+](=O)[O-])cc1O"
Marked response: 110 % of control

Exam item: Which T/C is reported for this molecule? "O=NN(c1cccc(C(F)(F)F)c1)c1ccccn1"
Marked response: 106 % of control

Exam item: Could you tell me which T/C is on file for CC1(C)CC(C)(OC(=O)c2ccccc2Cl)N=N1 (centres undefined) ?
Marked response: 112 % of control

These data points were gathered from PubChem BioAssay AID330.
